target: 14-3-3γ (Homo sapiens); construct: made in house; host or cells: E. coli NiCo21 (DE3); test: Fluorescence anisotropy (FA) binary binding study: 14-3-3 titrated to fluorescein-labelled peptide; details: Table S2; KD / KD of previous (one amino acid longer) peptide; replicate 3
Where a SMILES comes first, the peptide text is derived from it. [ ]: non-standard residue; d: D form. The star is where a group is joined. ξ: configuration not given here. FITC = O=C1OC2(c3ccc(O)cc3Oc3cc(O)ccc32)c2ccc(NC(=S)*)cc21; Phe(4-NO2) = N[C@@H](Cc1ccc([N+](=O)[O-])cc1)C(=O)O; ξAla(4-thiazolyl) = NC(Cc1cscn1)C(=O)O; pS = N[C@@H](COP(=O)(O)O)C(=O)O; β3hS = N[C@@H](CO)CC(=O)O; Nva = CCC[C@H](N)C(=O)O; βAla = NCCC(=O)O
readout: Fold change to previous

| compound | observed_measurement |
| --- | --- |
| C[C@H](NC(=O)[C@H](CCCCN)NC(=O)[C@H](Cc1ccc([N+](=O)[O-])cc1)NC(=O)CCNC(=O)C[C@H](CO)NC(=O)[C@H](Cc1ccc([N+](=O)[O-])cc1)NC(=O)[C@@H](N)COP(=O)(O)O)C(=O)N[C@@H](CCCCNC(=S)Nc1ccc2c(c1)C(=O)OC21c2ccc(O)cc2Oc2cc(O)ccc21)C(N)=O [2d] (H-[pS][Phe(4-NO2)][β3hS][βAla][Phe(4-NO2)]KAK(FITC)-NH2) | 43,18 |
| C[C@H](NC(=O)[C@H](CCCCN)NC(=O)[C@H](Cc1ccc([N+](=O)[O-])cc1)NC(=O)CCNC(=O)C[C@H](CO)NC(=O)[C@H](Cc1ccc([N+](=O)[O-])cc1)NC(=O)[C@H](COP(=O)(O)O)NC(=O)C(Cc1cscn1)NC(=O)[C@@H](N)Cc1ccc([N+](=O)[O-])cc1)C(=O)N[C@@H](CCCCNC(=S)Nc1ccc2c(c1)C(=O)OC21c2ccc(O)cc2Oc2cc(O)ccc21)C(N)=O (stereo partly drawn) [2b] (H-[Phe(4-NO2)][ξAla(4-thiazolyl)][pS][Phe(4-NO2)][β3hS][βAla][Phe(4-NO2)]KAK(FITC)-NH2) | 2,61 |
| CCC[C@H](N)C(=O)N[C@@H](Cc1ccc([N+](=O)[O-])cc1)C(=O)NC(Cc1cscn1)C(=O)N[C@@H](COP(=O)(O)O)C(=O)N[C@@H](Cc1ccc([N+](=O)[O-])cc1)C(=O)N[C@@H](CO)CC(=O)NCCC(=O)N[C@@H](Cc1ccc([N+](=O)[O-])cc1)C(=O)N[C@@H](CCCCN)C(=O)N[C@@H](C)C(=O)N[C@@H](CCCCNC(=S)Nc1ccc2c(c1)C(=O)OC21c2ccc(O)cc2Oc2cc(O)ccc21)C(N)=O (stereo partly drawn) [2a] (H-[Nva][Phe(4-NO2)][ξAla(4-thiazolyl)][pS][Phe(4-NO2)][β3hS][βAla][Phe(4-NO2)]KAK(FITC)-NH2) | 1,66 |
| C[C@H](NC(=O)[C@H](CCCCN)NC(=O)[C@H](Cc1ccc([N+](=O)[O-])cc1)NC(=O)CCNC(=O)C[C@H](CO)NC(=O)[C@H](Cc1ccc([N+](=O)[O-])cc1)NC(=O)[C@H](COP(=O)(O)O)NC(=O)C(N)Cc1cscn1)C(=O)N[C@@H](CCCCNC(=S)Nc1ccc2c(c1)C(=O)OC21c2ccc(O)cc2Oc2cc(O)ccc21)C(N)=O (stereo partly drawn) [2c] (H-[ξAla(4-thiazolyl)][pS][Phe(4-NO2)][β3hS][βAla][Phe(4-NO2)]KAK(FITC)-NH2) | 0,56 |

###

molecular target: 14-3-3γ (Homo sapiens, UniProt P61981); construct: made in house; host or cells: E. coli NiCo21 (DE3); experiment: Fluorescence anisotropy (FA) binary binding study: 14-3-3 titrated to fluorescein-labelled peptide; conditions: Table S2; ΔG minus ΔG of previous peptide, FA; replicate 3
Sequence (P61981 whole entry): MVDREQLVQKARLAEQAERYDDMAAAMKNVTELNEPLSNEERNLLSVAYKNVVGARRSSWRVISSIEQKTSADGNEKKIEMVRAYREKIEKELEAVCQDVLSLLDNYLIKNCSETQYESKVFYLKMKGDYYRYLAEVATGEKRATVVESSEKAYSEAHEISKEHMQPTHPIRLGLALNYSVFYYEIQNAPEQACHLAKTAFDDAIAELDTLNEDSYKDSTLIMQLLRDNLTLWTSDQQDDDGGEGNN
Where a SMILES comes first, the peptide text is derived from it. [ ]: non-standard residue; d: D form. The star is where a group is joined. ξ: configuration not given here. FITC = O=C1OC2(c3ccc(O)cc3Oc3cc(O)ccc32)c2ccc(NC(=S)*)cc21; Phe(4-NO2) = N[C@@H](Cc1ccc([N+](=O)[O-])cc1)C(=O)O; ξAla(4-thiazolyl) = NC(Cc1cscn1)C(=O)O; pS = N[C@@H](COP(=O)(O)O)C(=O)O; β3hS = N[C@@H](CO)CC(=O)O; Nva = CCC[C@H](N)C(=O)O; βAla = NCCC(=O)O
Measured ΔΔG (to previous) of individual entries
readout: ΔΔG (to previous)

| compound | test_system | observed_measurement |
| --- | --- | --- |
| C[C@H](NC(=O)[C@H](CCCCN)NC(=O)[C@H](Cc1ccc([N+](=O)[O-])cc1)NC(=O)CCNC(=O)C[C@H](CO)NC(=O)[C@H](Cc1ccc([N+](=O)[O-])cc1)NC(=O)[C@@H](N)COP(=O)(O)O)C(=O)N[C@@H](CCCCNC(=S)Nc1ccc2c(c1)C(=O)OC21c2ccc(O)cc2Oc2cc(O)ccc21)C(N)=O [2d] (H-[pS][Phe(4-NO2)][β3hS][βAla][Phe(4-NO2)]KAK(FITC)-NH2) | 14-3-3γ (Homo sapiens, UniProt P61981) | 2,23 kcal/mol |
| CCC[C@H](N)C(=O)N[C@@H](Cc1ccc([N+](=O)[O-])cc1)C(=O)NC(Cc1cscn1)C(=O)N[C@@H](COP(=O)(O)O)C(=O)N[C@@H](Cc1ccc([N+](=O)[O-])cc1)C(=O)N[C@@H](CO)CC(=O)NCCC(=O)N[C@@H](Cc1ccc([N+](=O)[O-])cc1)C(=O)N[C@@H](CCCCN)C(=O)N[C@@H](C)C(=O)N[C@@H](CCCCNC(=S)Nc1ccc2c(c1)C(=O)OC21c2ccc(O)cc2Oc2cc(O)ccc21)C(N)=O (stereo partly drawn) [2a] (H-[Nva][Phe(4-NO2)][ξAla(4-thiazolyl)][pS][Phe(4-NO2)][β3hS][βAla][Phe(4-NO2)]KAK(FITC)-NH2) | 14-3-3γ (Homo sapiens, UniProt P61981) | 0,30 kcal/mol |
| C[C@H](NC(=O)[C@H](CCCCN)NC(=O)[C@H](Cc1ccc([N+](=O)[O-])cc1)NC(=O)CCNC(=O)C[C@H](CO)NC(=O)[C@H](Cc1ccc([N+](=O)[O-])cc1)NC(=O)[C@H](COP(=O)(O)O)NC(=O)C(Cc1cscn1)NC(=O)[C@@H](N)Cc1ccc([N+](=O)[O-])cc1)C(=O)N[C@@H](CCCCNC(=S)Nc1ccc2c(c1)C(=O)OC21c2ccc(O)cc2Oc2cc(O)ccc21)C(N)=O (stereo partly drawn) [2b] (H-[Phe(4-NO2)][ξAla(4-thiazolyl)][pS][Phe(4-NO2)][β3hS][βAla][Phe(4-NO2)]KAK(FITC)-NH2) | 14-3-3γ (Homo sapiens, UniProt P61981) | 0,57 kcal/mol |
| C[C@H](NC(=O)[C@H](CCCCN)NC(=O)[C@H](Cc1ccc([N+](=O)[O-])cc1)NC(=O)CCNC(=O)C[C@H](CO)NC(=O)[C@H](Cc1ccc([N+](=O)[O-])cc1)NC(=O)[C@H](COP(=O)(O)O)NC(=O)C(N)Cc1cscn1)C(=O)N[C@@H](CCCCNC(=S)Nc1ccc2c(c1)C(=O)OC21c2ccc(O)cc2Oc2cc(O)ccc21)C(N)=O (stereo partly drawn) [2c] (H-[ξAla(4-thiazolyl)][pS][Phe(4-NO2)][β3hS][βAla][Phe(4-NO2)]KAK(FITC)-NH2) | 14-3-3γ (Homo sapiens, UniProt P61981) | -0,34 kcal/mol |

###

target: 14-3-3γ (Homo sapiens, UniProt P61981); construct: made in house; host or cells: E. coli NiCo21 (DE3); assay: Isothermal titration calorimetry (ITC) of 14-3-3 binding to peptide; conditions: Table S5; ΔG of peptide minus ΔG of peptide 1, ITC; mean of n = 2
Where a SMILES comes first, the peptide text is derived from it. [ ]: non-standard residue; d: D form. ξ: configuration not given here. Phe(4-NO2) = N[C@@H](Cc1ccc([N+](=O)[O-])cc1)C(=O)O; ξAla(4-thiazolyl) = NC(Cc1cscn1)C(=O)O; pS = N[C@@H](COP(=O)(O)O)C(=O)O; β3hS = N[C@@H](CO)CC(=O)O; Nva = CCC[C@H](N)C(=O)O; βAla = NCCC(=O)O

| compound | test_system | ΔΔG to 1 |
| --- | --- | --- |
| CCC[C@H](NC(=O)[C@H](N)CCCCN)C(=O)N[C@@H](Cc1ccc([N+](=O)[O-])cc1)C(=O)NC(Cc1cscn1)C(=O)N[C@@H](COP(=O)(O)O)C(=O)N[C@@H](Cc1ccccc1)C(=O)N[C@@H](CO)CC(=O)NCCC(=O)N[C@@H](Cc1ccc([N+](=O)[O-])cc1)C(=O)N[C@@H](CCCCN)C(N)=O (stereo partly drawn) [4b] (H-[dK][Nva][Phe(4-NO2)][ξAla(4-thiazolyl)][pS]F[β3hS][βAla][Phe(4-NO2)]K-NH2; N-terminus and C-terminus assumed) | 14-3-3γ (Homo sapiens, UniProt P61981) | -0.2 kcal/mol |
| CCC[C@H](NC(=O)[C@H](N)CCCCN)C(=O)N[C@@H](Cc1ccc([N+](=O)[O-])cc1)C(=O)NC(Cc1cscn1)C(=O)N[C@@H](COP(=O)(O)O)C(=O)N[C@@H](Cc1ccc([N+](=O)[O-])cc1)C(=O)N[C@@H](CO)CC(=O)NCCC(=O)N[C@@H](C)C(=O)N[C@@H](CCCCN)C(N)=O (stereo partly drawn) [5c] (H-[dK][Nva][Phe(4-NO2)][ξAla(4-thiazolyl)][pS][Phe(4-NO2)][β3hS][βAla]AK-NH2; N-terminus and C-terminus assumed) | 14-3-3γ (Homo sapiens, UniProt P61981) | 2.6 kcal/mol |
